Assay Summary: toxicity (LD50) p.o. in rats
Protocol Conditions: rat, in vivo, po, after 10 days
Recorded Endpoint: LD50 at 240 h

Check the records and state LD50 at 240 h for O=C(NCCN1CCOCC1)c1ccc(Cl)cc1 [p-chloro-N-(2-morpholinoethyl)-benzamide] 707 mg/kg

* * *

Assay Summary: toxicity (LD50) p.o. in mice
Protocol Conditions: mouse, in vivo, po
# maps each entry to its LD50

For orientation, consider the following solved cases.
O=C(NCCN1CCOCC1)c1ccc(C(F)(F)F)cc1 = 1000 to 2000 mg/kg
O=C(NCCN1CCOCC1)c1ccc(I)cc1 [p-iodo-N-(2-morpholinoethyl)-benzamide] = 1250 to 2500 mg/kg
O=C(NCCN1CCOCC1)c1ccc(Br)cc1 [p-bromo-N-(2-morpholinoethyl)-benzamide] = 1250 to 2500 mg/kg
O=C(NCCN1CCOCC1)c1ccc(Cl)cc1Cl = 1250 to 2500 mg/kg
CC(C)(C)c1ccc(C(=O)NCCN2CCOCC2)cc1 = 1250 to 2500 mg/kg

Here is another compound to look at.
Check the records and state LD50 for O=C(NCCN1CCOCC1)c1ccc(F)cc1 [p-fluoro-N-(2-morpholinoethyl)-benzamide] 1250 to 2500 mg/kg

* * *

Test system: monoamine oxidase (MAO)
Assay Summary: MAO inhibiting activity in liver homogenates of rats after p.o. administration
Assay type: in vivo
Protocol Conditions: animals killed one hour after administration, MAO measured in liver homogenates, 60 min
# maps each entry to its ED50 (MAO inhibiting activity)
Report the figure in µmol/kg without appending any unit label.

O=C(NCCN1CCOCC1)c1ccc(C(F)(F)F)cc1 = 16
O=C(NCCN1CCOCC1)c1ccc(F)cc1 [p-fluoro-N-(2-morpholinoethyl)-benzamide] = 11

Here is another molecule to look at.
Check the records and state ED50 (MAO inhibiting activity) for O=C(NCCN1CCOCC1)c1ccc(I)cc1 [p-iodo-N-(2-morpholinoethyl)-benzamide] 4

* * *

# maps each entry to its ED50 (MAO inhibiting activity)
Tested on: monoamine oxidase (MAO)
Assay Summary: MAO inhibiting activity in liver homogenates of rats after p.o. administration
Assay type: in vivo
Protocol Conditions: animals killed one hour after administration, MAO measured in liver homogenates, 60 min
Procedure: The MAO inhibiting activity of the compounds of formula I of the invention can be determined using standard methods. Thus, the compounds of formula I to be tested were administered p.o. to rats. One hour thereafter the animals were killed and the MAO inhibiting activity in the liver homogenates was measured according to the method described in Biochem. Pharmacol. 12 (1963) 1439-1441. […]
Report field: quantity (unit follows the number).

For orientation, consider the following solved cases.
O=C(NCCN1CCOCC1)c1ccc(Br)cc1 [p-bromo-N-(2-morpholinoethyl)-benzamide] = 6 µmol/kg
O=C(NCCN1CCOCC1)c1ccc(Cl)cc1Cl = 13 µmol/kg
O=C(NCCN1CCOCC1)c1ccc(Cl)cc1 [p-chloro-N-(2-morpholinoethyl)-benzamide] = 5 µmol/kg

Check the records and state ED50 (MAO inhibiting activity) for O=C(NCCN1CCOCC1)c1ccc(Cl)cc1[N+](=O)[O-] 2 µmol/kg

Check the records and state ED50 (MAO inhibiting activity) for CC(C)(C)c1ccc(C(=O)NCCN2CCOCC2)cc1 16 µmol/kg
